B1: PLK2 (parent)
chain: YAELGQCSVFPATDAPEQFISQVT

- Variants of: B1
- Test Name: protein stability index of a GFP-peptide fusion (GPS, HEK-293T) (PSI 1-6); higher = more stable;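 further: lentivirally expressed fusions sorted by FACS into six bins by GFP to DsRed ratio, PSI derived from sequencing read proportions per bin multiplied by bin number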
- Setup Conditions: c terminus: a fixed tail appended

- Variant Id: "S21Q"
  protein stability index: 1.89
- Variant Id: "G5V"
  protein stability index: 2.21
- Variant Id: "S21A"
  protein stability index: 1.64
- Variant Id: "S21V"
  protein stability index: 1.9
- Variant Id: "D14R"
  protein stability index: 1.7
- Variant Id: "I20Y"
  protein stability index: 1.7
- Variant Id: "L4K"
  protein stability index: 2.62
- Variant Id: "V9N"
  protein stability index: 3.02
- Variant Id: "F19H"
  protein stability index: 3.16
- Variant Id: "S8Q"
  protein stability index: 2.08
- Variant Id: "P11T"
  protein stability index: 3.65
- Variant Id: "Y1A"
  protein stability index: 4.32
- Variant Id: "Q22Y"
  protein stability index: 1.86
- Variant Id: "I20V"
  protein stability index: 2.84
- Variant Id: "C7G"
  protein stability index: 2.63
- Variant Id: "G5P"
  protein stability index: 2.46
- Variant Id: "Q18H"
  protein stability index: 2.19
- Variant Id: "A15T"
  protein stability index: 2.19
- Variant Id: "Q22C"
  protein stability index: 1.72
- Variant Id: "C7L"
  protein stability index: 1.69
- Variant Id: "T13E"
  protein stability index: 3.45
- Variant Id: "I20R"
  protein stability index: 2.53
- Variant Id: "V23H"
  protein stability index: 1.98
- Variant Id: "D14K"
  protein stability index: 1.96
- Variant Id: "F10P"
  protein stability index: 3.58
- Variant Id: "Y1S"
  protein stability index: 4.09
- Variant Id: "C7V"
  protein stability index: 2.32
- Variant Id: "D14M"
  protein stability index: 1.75
- Variant Id: "E17L"
  protein stability index: 2.33
- Variant Id: "C7S"
  protein stability index: 1.87
- Variant Id: "A2L"
  protein stability index: 2.36
- Variant Id: "V9F"
  protein stability index: 1.67
- Variant Id: "A12H"
  protein stability index: 1.93
- Variant Id: "V23M"
  protein stability index: 2.29
- Variant Id: "F10R"
  protein stability index: 3.18
- Variant Id: "V9I"
  protein stability index: 2.62
- Variant Id: "Q18D"
  protein stability index: 2.98
- Variant Id: "L4E"
  protein stability index: 4.42
- Variant Id: "F10Y"
  protein stability index: 2.4
- Variant Id: "P11M"
  protein stability index: 2.62
- Variant Id: "A15K"
  protein stability index: 2.29
- Variant Id: "T24K"
  protein stability index: 2.6
- Variant Id: "V23N"
  protein stability index: 2.58
- Variant Id: "D14Q"
  protein stability index: 1.91
- Variant Id: "A12D"
  protein stability index: 2.81
- Variant Id: "E17W"
  protein stability index: 3.35
- Variant Id: "A2Q"
  protein stability index: 2.79
- Variant Id: "S8M"
  protein stability index: 1.66
- Variant Id: "Q18S"
  protein stability index: 2.29
- Variant Id: "E3V"
  protein stability index: 2.31
- Variant Id: "S8H"
  protein stability index: 1.83
- Variant Id: "Q18F"
  protein stability index: 2.15
- Variant Id: "A15V"
  protein stability index: 2.22
- Variant Id: "A12Q"
  protein stability index: 2.6
- Variant Id: "G5S"
  protein stability index: 2.14
- Variant Id: "Q6N"
  protein stability index: 2.28
- Variant Id: "T24E"
  protein stability index: 2.33
- Variant Id: "Q22S"
  protein stability index: 2.06
- Variant Id: "A2K"
  protein stability index: 3.47
- Variant Id: "Y1E"
  protein stability index: 4.52
- Variant Id: "Y1N"
  protein stability index: 4.46
- Variant Id: "E3R"
  protein stability index: 2.09
- Variant Id: "Q18Y"
  protein stability index: 2.26
